Please go through the items and note down their PBM binding z-score.
Tested on: LXRa:RXRa (NR concentration 270 nM, RXRa partner concentration 90 nM)
procedureText: PBM binding z-score (relative to random genomic background probes); higher = stronger binding; sequences stand for … in GC…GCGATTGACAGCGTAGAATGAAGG
Answer with a number only.

// returns reported PBM binding z-score for input CCTACCGGGCCAAAAAGGTCATTGATGCCGATAA
4.28

// returns reported PBM binding z-score for input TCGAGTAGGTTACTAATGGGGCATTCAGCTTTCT
2.4

// returns reported PBM binding z-score for input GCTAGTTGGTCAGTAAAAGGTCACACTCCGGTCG
4.29

// returns reported PBM binding z-score for input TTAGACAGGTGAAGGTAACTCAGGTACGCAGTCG
1.75

// returns reported PBM binding z-score for input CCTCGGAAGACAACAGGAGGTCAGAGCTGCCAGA
1.66

// returns reported PBM binding z-score for input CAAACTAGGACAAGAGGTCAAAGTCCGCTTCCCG
5.72

// returns reported PBM binding z-score for input AGTCAAAGTTCAGGGCGAGGTAACGTAAAGCACG
4.03

// returns reported PBM binding z-score for input TCATACAGGTAAACAGGTGAAAGTCCGTAAGTTA
1.11

// returns reported PBM binding z-score for input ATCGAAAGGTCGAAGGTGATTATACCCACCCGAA
3.69

// returns reported PBM binding z-score for input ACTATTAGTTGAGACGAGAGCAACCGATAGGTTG
-0.233

// returns reported PBM binding z-score for input CAAACTGGGTCACAGAGGTCAAAGTCCGTGCGTA
6.47

// returns reported PBM binding z-score for input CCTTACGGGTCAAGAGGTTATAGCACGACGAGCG
4.17

// returns reported PBM binding z-score for input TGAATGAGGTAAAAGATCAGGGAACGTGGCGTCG
-0.0204

// returns reported PBM binding z-score for input CAAACTTGGTCACGAAAGGTCAAAGTCGAATGAC
6.11

// returns reported PBM binding z-score for input CCTCGGAGGACAGAATGTCAGAGCTGTCCGCTTT
-0.467

// returns reported PBM binding z-score for input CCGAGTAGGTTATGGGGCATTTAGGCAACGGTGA
0.407

// returns reported PBM binding z-score for input CCGACTGGGGCATAAGGTTACCAAAAGCCAGCCC
1.26

// returns reported PBM binding z-score for input TCTGCTAGGTCCGTTGGTCAGCTAACGAGCTGCC
-0.6

// returns reported PBM binding z-score for input GCTCGGAGGACAAGGTCAGCGCTTTGTCCGTAGA
2.15

// returns reported PBM binding z-score for input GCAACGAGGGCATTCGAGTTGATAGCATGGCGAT
1.56

// returns reported PBM binding z-score for input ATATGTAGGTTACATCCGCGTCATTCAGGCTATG
1.31

// returns reported PBM binding z-score for input ACTATGAGTTGAGACGAGGGCAACCGATAGGTTG
0.578

// returns reported PBM binding z-score for input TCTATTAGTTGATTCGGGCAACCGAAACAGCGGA
0.339

// returns reported PBM binding z-score for input GCTCGGAGGACAGGGTCAGAGCTTTGTCCGTAGA
0.858

// returns reported PBM binding z-score for input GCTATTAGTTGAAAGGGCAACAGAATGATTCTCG
0.675

// returns reported PBM binding z-score for input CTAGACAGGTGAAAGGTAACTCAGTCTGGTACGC
0.864

* * *

Please go through the items and note down their PBM binding z-score.
Tested on: PPARa:RXRa (NR concentration 270 nM, RXRa partner concentration 90 nM)
procedureText: PBM binding z-score (relative to random genomic background probes); higher = stronger binding; sequences stand for … in GC…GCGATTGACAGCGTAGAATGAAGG
Answer with a number only.

Query PBM binding z-score on PPARa:RXRa (NR concentration 270 nM, RXRa partner concentration 90 nM) for ATCTCTAGGTAACCAATTTCAGTGAATGCCGAAC
0.596

Query PBM binding z-score on PPARa:RXRa (NR concentration 270 nM, RXRa partner concentration 90 nM) for CGGACTGGGGCATAAGGTTACCATAAGCCAGCCC
2.78

Query PBM binding z-score on PPARa:RXRa (NR concentration 270 nM, RXRa partner concentration 90 nM) for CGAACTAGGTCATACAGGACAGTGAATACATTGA
4.67

Query PBM binding z-score on PPARa:RXRa (NR concentration 270 nM, RXRa partner concentration 90 nM) for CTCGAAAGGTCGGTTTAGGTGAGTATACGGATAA
2.44

Query PBM binding z-score on PPARa:RXRa (NR concentration 270 nM, RXRa partner concentration 90 nM) for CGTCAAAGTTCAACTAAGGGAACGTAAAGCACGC
4.93

Query PBM binding z-score on PPARa:RXRa (NR concentration 270 nM, RXRa partner concentration 90 nM) for ACTATTAGTTGAATTAGGGCAACCGATACGACGC
1.19

Query PBM binding z-score on PPARa:RXRa (NR concentration 270 nM, RXRa partner concentration 90 nM) for CGAACTAGGTCATTGACAGGACAGTGATTAGTAA
4.69

Query PBM binding z-score on PPARa:RXRa (NR concentration 270 nM, RXRa partner concentration 90 nM) for ATATGTAGGTTATATCCGGGTCATTCAGGCTATG
4.19

Query PBM binding z-score on PPARa:RXRa (NR concentration 270 nM, RXRa partner concentration 90 nM) for TATACAGGGCCAAAGGCCAGAGTACGAATGTCGA
1.38

Query PBM binding z-score on PPARa:RXRa (NR concentration 270 nM, RXRa partner concentration 90 nM) for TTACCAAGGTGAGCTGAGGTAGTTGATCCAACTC
0.16

Query PBM binding z-score on PPARa:RXRa (NR concentration 270 nM, RXRa partner concentration 90 nM) for GCTGCTTGGTCAGGTTGGTCAGCTAACGGGTACG
-0.407

Query PBM binding z-score on PPARa:RXRa (NR concentration 270 nM, RXRa partner concentration 90 nM) for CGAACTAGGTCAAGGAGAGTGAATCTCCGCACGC
4.25

* * *

System: PPARg:RXRa 270nM:90nM, anti-RXR (NR concentration 270 nM, RXRa partner concentration 90 nM)
procedureText: PBM binding z-score (relative to random genomic background probes); higher = stronger binding; sequences stand for … in GC…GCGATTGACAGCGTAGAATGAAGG
measurementKind: PBM binding z-score
Answer with a number only.

// returns reported PBM binding z-score for input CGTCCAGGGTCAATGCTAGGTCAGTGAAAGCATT
4.59

// returns reported PBM binding z-score for input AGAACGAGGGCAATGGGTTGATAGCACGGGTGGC
1.38

// returns reported PBM binding z-score for input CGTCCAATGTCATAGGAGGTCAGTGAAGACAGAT
0.958

// returns reported PBM binding z-score for input CCTAGCAGTCCAGGGTCACTCAAGCATTTCGCTT
1.17

// returns reported PBM binding z-score for input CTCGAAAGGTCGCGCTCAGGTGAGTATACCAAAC
4.57

// returns reported PBM binding z-score for input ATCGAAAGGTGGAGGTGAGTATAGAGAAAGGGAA
0.302

// returns reported PBM binding z-score for input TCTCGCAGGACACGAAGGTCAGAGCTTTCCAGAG
1.75

// returns reported PBM binding z-score for input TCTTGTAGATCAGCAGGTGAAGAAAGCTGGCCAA
1.19

// returns reported PBM binding z-score for input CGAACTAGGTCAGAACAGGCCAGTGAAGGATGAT
4.38

// returns reported PBM binding z-score for input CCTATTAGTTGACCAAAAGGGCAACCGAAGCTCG
1.52

// returns reported PBM binding z-score for input CCTTACGGGTCACCAGGTTATAGCACGACGAGCG
6.21

// returns reported PBM binding z-score for input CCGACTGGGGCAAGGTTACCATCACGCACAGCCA
3.61

// returns reported PBM binding z-score for input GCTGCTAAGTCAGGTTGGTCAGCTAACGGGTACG
-0.678

// returns reported PBM binding z-score for input CCTACTGCGCCAAAGGTCATTGATTCCAATGCTC
7.67

// returns reported PBM binding z-score for input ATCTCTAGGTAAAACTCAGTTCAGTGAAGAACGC
0.473

// returns reported PBM binding z-score for input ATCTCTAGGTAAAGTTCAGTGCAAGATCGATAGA
4.48

// returns reported PBM binding z-score for input CGTCCAAGGTCAAGGCTAGGTCAGTGAAAGCATT
5.35

// returns reported PBM binding z-score for input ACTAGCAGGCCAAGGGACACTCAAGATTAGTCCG
1.99

// returns reported PBM binding z-score for input TAACCTAGGTCAGATCGGGCCAGTATACGCTATA
2.06

// returns reported PBM binding z-score for input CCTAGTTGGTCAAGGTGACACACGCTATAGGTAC
1.93

// returns reported PBM binding z-score for input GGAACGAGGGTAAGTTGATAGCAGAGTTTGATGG
0.00426

// returns reported PBM binding z-score for input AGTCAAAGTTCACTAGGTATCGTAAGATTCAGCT
5.82

// returns reported PBM binding z-score for input AGAATGAGGTTACCAAAGATCAGGGTAACGCTTG
3.14

// returns reported PBM binding z-score for input ATCTCTATGTAAAGATAGTTCAGTGAATGCAAAT
0.0606

// returns reported PBM binding z-score for input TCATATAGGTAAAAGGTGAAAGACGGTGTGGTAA
8.73

// returns reported PBM binding z-score for input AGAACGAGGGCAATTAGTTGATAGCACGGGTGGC
0.81

// returns reported PBM binding z-score for input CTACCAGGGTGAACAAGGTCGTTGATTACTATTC
1.28

// returns reported PBM binding z-score for input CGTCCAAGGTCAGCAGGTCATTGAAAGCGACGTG
4.94

// returns reported PBM binding z-score for input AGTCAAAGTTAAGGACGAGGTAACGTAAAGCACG
0.357

// returns reported PBM binding z-score for input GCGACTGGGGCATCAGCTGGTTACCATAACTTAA
0.562

// returns reported PBM binding z-score for input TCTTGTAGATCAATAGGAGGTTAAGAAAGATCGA
1.57

// returns reported PBM binding z-score for input CGTAGCAGGCCAGGGTCACTCAAGCATTTCGCTT
1.49

// returns reported PBM binding z-score for input ATCTCTAGGTAAAGATAGTTGAGTGAATGCAAAT
0.246

// returns reported PBM binding z-score for input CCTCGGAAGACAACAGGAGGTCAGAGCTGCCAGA
0.247

// returns reported PBM binding z-score for input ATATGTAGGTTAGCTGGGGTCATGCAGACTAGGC
5.5

// returns reported PBM binding z-score for input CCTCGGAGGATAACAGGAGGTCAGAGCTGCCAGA
-0.114

// returns reported PBM binding z-score for input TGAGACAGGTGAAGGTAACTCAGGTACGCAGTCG
0.251

// returns reported PBM binding z-score for input TCTATTAGTTGAAGGGCATCCGACGAGTCCGTTT
2.03

// returns reported PBM binding z-score for input CGTCCAAGGTCAATGCTAGGTCCGTGAAAGCATT
3.97

// returns reported PBM binding z-score for input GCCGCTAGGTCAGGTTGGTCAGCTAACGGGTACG
0.955

// returns reported PBM binding z-score for input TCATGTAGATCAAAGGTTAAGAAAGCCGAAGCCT
8.1

// returns reported PBM binding z-score for input ATATGTAGGTTGCATCCGGGTCATTCAGGCTATG
1.68

// returns reported PBM binding z-score for input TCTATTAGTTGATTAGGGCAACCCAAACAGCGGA
1.97

// returns reported PBM binding z-score for input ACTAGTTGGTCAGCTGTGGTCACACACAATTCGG
0.0705

// returns reported PBM binding z-score for input ACAGACAGCTGATGAAGGTAACTCAGGCTATCAT
-0.383

// returns reported PBM binding z-score for input TCTAGCGGGCCAGAGGGTCACTCAAGAGGTACGG
2.42

// returns reported PBM binding z-score for input CAAACTAGGTCACCGGAAGGGCAAAGTCCGCATG
6.95

// returns reported PBM binding z-score for input ATCTCTAGGTAAGACTCAGTTCAGTAAAGAACGC
0.669

// returns reported PBM binding z-score for input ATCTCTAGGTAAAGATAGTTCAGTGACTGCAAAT
0.437

// returns reported PBM binding z-score for input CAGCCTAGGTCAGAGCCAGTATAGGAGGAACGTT
0.566

// returns reported PBM binding z-score for input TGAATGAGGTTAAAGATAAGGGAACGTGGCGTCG
3.98
